# protocol details: Serum stability assay in human serum (LC/MS)
# conditions used: human, Remaining peptide (%), 37 °C, incubation time 24 h, relative to 0 h = 100%, technical replicates
Numbered stars: 1 amine (or outer) side, 2 acyl side, 3 side chain; on linkers, the order of the positions; unused ones are H or OH. Bridge positions count the residues as written; N and C are the ends. Square brackets hold non-standard residues; d marks the D form. Peptide text beside a SMILES is read from it. Acbc(cis-1,3) = O=C([C@H]1C[C@@H](N[*:1])C1)[*:2]; X1 = O=C([C@@H]1CC[C@H](N[*:1])C1)[*:2]
Each item that follows carries a reported remaining at 24 h, 10 μM.
The reply should contain only the number, in %.

remaining at 24 h, 10 μM in this record for CC(C)C[C@@H]1NC(=O)[C@H](CC(N)=O)NC(=O)[C@H](CC(C)C)NC(=O)[C@H]2C[C@H](C2)NC(=O)[C@H](CCC(N)=O)NC(=O)[C@H](Cc2ccccc2)NC(=O)[C@@H](Cc2ccc(O)cc2)NC(=O)CSC[C@H](C(N)=O)NC(=O)CNC(=O)[C@@H]2CCCN2C(=O)[C@H](CCCNC(=N)N)NC(=O)[C@H](Cc2ccc(O)cc2)NC(=O)CNC1=O [GM4H3Q] ({CH2CO}-[dY]FQ[Acbc(cis-1,3)]LNLGYRPG[dC]-NH2; thioether N-13) : 81.3

remaining at 24 h, 10 μM in this record for CC(C)C[C@@H]1NC(=O)[C@@H](Cc2ccc(O)cc2)NC(=O)CSC[C@H](C(N)=O)NC(=O)[C@H](C)NC(=O)[C@H](C)NC(=O)[C@H](Cc2ccc(O)cc2)NC(=O)[C@H](CCCNC(=N)N)NC(=O)[C@H](Cc2ccc(O)cc2)NC(=O)[C@@H]2CC[C@@H](C2)NC(=O)[C@H](CO)NC(=O)[C@H](Cc2ccc(O)cc2)NC(=O)[C@H]([C@@H](C)O)NC(=O)[C@H](CO)NC(=O)[C@H](C)NC(=O)[C@H](Cc2ccc(O)cc2)NC(=O)[C@H](Cc2c[nH]cn2)NC1=O [GM3] ({CH2CO}-[dY]LHYASTYS[X1]YRYAA[dC]-NH2; thioether N-16) : 0

remaining at 24 h, 10 μM in this record for CC(C)C[C@@H]1NC(=O)[C@@H](Cc2ccc(O)cc2)NC(=O)CSC[C@H](C(N)=O)NC(=O)[C@H](C)NC(=O)[C@H](C)NC(=O)[C@H](Cc2ccc(O)cc2)NC(=O)[C@H](CCCNC(=N)N)NC(=O)[C@H](Cc2ccc(O)cc2)NC(=O)[C@H](C)NC(=O)[C@H](CO)NC(=O)[C@H](Cc2ccc(O)cc2)NC(=O)[C@H]([C@@H](C)O)NC(=O)[C@H](CO)NC(=O)[C@H](C)NC(=O)[C@H](Cc2ccc(O)cc2)NC(=O)[C@H](Cc2c[nH]cn2)NC1=O [GM3γ^210A] ({CH2CO}-[dY]LHYASTYSAYRYAA[dC]-NH2; thioether N-16) : 0

This collection of values is drawn from paper PMC10322702.
